# Assayed System: AprACP, ACP of the apratoxin (PK/NRP) gene cluster in Lyngbya sp.
Outcome Measure: kcat/Km
# number then unit; no other words

**Q:** # return recorded kcat/Km for entry MPPT, Sfp-like phosphopantetheinyl transferase (PPTase) from Microcystis aeruginosa NIES843 (protein) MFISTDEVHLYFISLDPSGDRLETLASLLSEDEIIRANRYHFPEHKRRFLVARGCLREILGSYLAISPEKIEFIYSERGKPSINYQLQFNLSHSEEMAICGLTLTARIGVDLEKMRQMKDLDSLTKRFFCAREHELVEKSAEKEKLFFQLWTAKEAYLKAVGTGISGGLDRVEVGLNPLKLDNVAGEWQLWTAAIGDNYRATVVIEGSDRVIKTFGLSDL
**A:** 1.1 µM⁻¹ min⁻¹

**Q:** Supply kcat/Km value. Item: Sfp, phosphopantetheinyl transferase from Bacillus subtilis (protein) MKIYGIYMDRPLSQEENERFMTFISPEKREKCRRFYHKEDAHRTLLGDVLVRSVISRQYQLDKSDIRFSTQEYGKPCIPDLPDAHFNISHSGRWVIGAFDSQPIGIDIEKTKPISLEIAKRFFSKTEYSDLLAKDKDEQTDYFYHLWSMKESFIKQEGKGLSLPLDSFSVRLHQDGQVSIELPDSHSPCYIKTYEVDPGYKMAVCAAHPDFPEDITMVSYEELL
**A:** 0.3 µM⁻¹ min⁻¹

**Q:** Tell me measured kcat/Km for SPPT, Sfp-like phosphopantetheinyl transferase (PPTase) from Synechocystis sp. PCC6803 (protein) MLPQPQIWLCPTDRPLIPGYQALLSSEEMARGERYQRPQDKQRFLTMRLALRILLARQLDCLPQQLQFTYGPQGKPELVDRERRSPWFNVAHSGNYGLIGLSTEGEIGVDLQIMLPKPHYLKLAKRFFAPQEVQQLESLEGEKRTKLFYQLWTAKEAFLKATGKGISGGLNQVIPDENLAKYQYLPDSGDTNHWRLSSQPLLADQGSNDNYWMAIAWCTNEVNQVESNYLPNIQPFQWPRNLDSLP please.
**A:** 1 µM⁻¹ min⁻¹

**Q:** Tell me its kcat/Km given APPT, Sfp-like phosphopantetheinyl transferase (PPTase) from Anabaena sp. PCC7120 (protein) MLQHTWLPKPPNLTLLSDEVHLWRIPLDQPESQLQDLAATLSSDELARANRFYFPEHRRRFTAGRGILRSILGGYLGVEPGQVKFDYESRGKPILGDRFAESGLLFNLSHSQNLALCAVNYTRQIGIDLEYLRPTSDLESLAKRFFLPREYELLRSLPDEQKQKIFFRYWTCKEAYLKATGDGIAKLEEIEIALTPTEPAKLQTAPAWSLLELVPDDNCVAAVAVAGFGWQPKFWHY as the entry.
**A:** 1.8 µM⁻¹ min⁻¹
